Taken from PubChem BioAssay AID1159580.

Parameter: normalized growth. Scope: all listed entries.
- MEASUREMENT PROTOCOL: chemical genetic growth profiling, strain panel (AID 1159580);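 further: tested at 20 µM; growth read once vehicle control cultures reached saturation at 30 °C; 1 = growth at the plate median or of vehicle wells; lower values mean less growth of the strain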
- EXPERIMENTAL CONTEXT: S. cerevisiae deletion strains, growth OD, locus YBR171W, strain sec66, stronger effect = lower value
The whole screen tested about 5,500 compounds, of which about 2,000 (36%) were called active. Inconclusive results (about 18%) are left out. The list shows a part of the results.

COMPOUND	normalized growth
COC1=CC(=O)C[C@@H](C)[C@]12Oc1c(Cl)c(OC)cc(OC)c1C2=O	0.961
COC1=C(OC)C(=O)C(C/C=C(\C)CC/C=C(\C)CC/C=C(\C)CC/C=C(/C)CC/C=C(\C)CC/C=C(\C)CC/C=C(\C)CC/C=C(\C)CC/C=C(\C)CCC=C(C)C)=C(C)C1=O	0.973
COc1cc2c(cc1OC)Cc1cc(OC)c(OC)cc1Cc1cc(OC)c(OC)cc1C2	1.05
CCOC(=O)[C@H](CCc1ccccc1)N[C@H]1CCc2ccccc2N(CC(=O)O)C1=O	0.976

====

- MEASUREMENT PROTOCOL: chemical genetic growth profiling, strain panel (AID 1159580);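 further: tested at 20 µM; growth read once vehicle control cultures reached saturation at 30 °C; 1 = growth at the plate median or of vehicle wells; lower values mean less growth of the strain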
- EXPERIMENTAL CONTEXT: S. cerevisiae deletion strains, growth OD, locus YPL240C, strain hsp82
The whole screen tested about 5,500 compounds, of which about 2,000 (36%) were called active. Inconclusive results (about 18%) are left out. Rule as the data show it: active = normalized growth mostly below about 0.91 (no sharp cut-off); inconclusive = no clear call, values can overlap the other calls; inactive = mostly above about 0.92. This is one part of the list.
Outcomes: active, inactive

MOLECULE	CLASSIFICATION
CCCCCCCCNC(C)C(O)c1ccc(SC(C)C)cc1 (stereo unspecified)	active
Oc1cc(Cl)ccc1Oc1ccc(Cl)cc1Cl	active
Cc1[nH]c(C)c(Cl)c(=O)c1Cl	inactive
CN1CCC(=C2c3ccccc3Sc3ccccc32)CC1	inactive
COc1cc(O)c(C(=O)/C=C/c2ccc(OC)c(O)c2)c(OC)c1	inactive
CN1CCC(=C2c3ccccc3CCc3sccc32)CC1	inactive
COc1ccc2cc([C@H](C)C(=O)O)ccc2c1	inactive
Cc1cc(O)c(C=O)c(O)c1C(=O)O	inactive
CN(C)c1ccc(C(=C2C=CC(=[N+](C)C)C=C2)c2ccc(N(C)C)cc2)cc1	active
C[C@]12CCC(=O)C=C1CCC1C2CC[C@@]2(C)C1CC[C@@H]2O (stereo partly specified)	inactive
CC(C(=O)O)c1ccc(-c2ccccc2)c(F)c1 (stereo unspecified)	inactive
COc1cc(/C=C/C(=O)/C=C(O)/C=C/c2ccc(O)c(OC)c2)ccc1O	active
COc1cc2c(cc1OC)[C@@H]1C(=O)c3ccc4oc(C(C)C)cc4c3O[C@@H]1CO2	inactive
C=C1C2CC[C@H]3[C@]4(C)C[C@H](OC5OC(CO)C(OS(=O)(=O)O)C(OS(=O)(=O)O)C5OC(=O)CC(C)C)C[C@@H](C(=O)O)[C@H]4CC[C@]3(C2)[C@H]1O (stereo partly specified)	inactive
COc1cc(NS(=O)(=O)c2ccc(N)cc2)nc(OC)n1	inactive
COc1ccc2c(c1)O[C@@H]1COc3cc(OC)c(OC)cc3[C@@H]1C2=O	active
CC(=O)O[C@@H]1C[C@@]2(C)C(CC[C@@H]2C(C)=O)C2CCC3=CC(=O)CC[C@]3(C)C21 (stereo partly specified)	inactive
CC1=C(C(C)O)C2=NC1C=c1[nH]c(c(C)c1C(C)O)=Cc1[nH]c(c(CCC(=O)O)c1C)C=c1[nH]c(c(C)c1CCC(=O)O)=C2 (stereo unspecified)	inactive
COP(=O)(OC)OC=C(Cl)Cl	inactive
CCOC(=O)c1c(C)cc(O)c(C=O)c1O	active
CCOC(=O)c1c(C)c(Cl)c(O)c(Cl)c1O	active
S=c1nc[nH]c2nc[nH]c12	inactive
CC(C)c1c(C(=O)c2ccccc2)c(-c2ccccc2)c(-c2ccc(F)cc2)n1CC[C@@H](O)C[C@@H](O)CC(=O)O	inactive
CN(C)C(=S)SSC(=S)N(C)C	active
CC1(C)OC(=O)NC1=O	inactive
c1cncc(C2CCCCN2)c1 (stereo unspecified)	inactive
COc1ccc(OC)c(C(O)C(C)N)c1 (stereo unspecified)	inactive
C=Cc1c2[nH]c(c1C)C=c1[nH]c(c(C)c1C=C)=CC1N=C(C=c3[nH]c(c(C)c3CCC(=O)O)=C2)C(CCC(=O)O)=C1C (stereo unspecified)	inactive
Cc1cccc(C)c1OCC(C)N (stereo unspecified)	inactive
COc1cc2c(cc1OC)[C@@H]1C(=O)c3ccc(O)c(CC=C(C)C)c3O[C@@H]1CO2	active
COc1cc(O)c(C(=O)/C=C/c2ccccc2)c(OC)c1	active
COc1ccc2cc([C@H](C)CO)ccc2c1	inactive
CNC(C)[C@H](O)c1ccccc1 (stereo partly specified)	inactive
CN[C@@H](C)[C@@H](O)c1ccccc1	inactive
NC(=O)C(c1ccccc1)(c1ccccc1)C1CCN(CCc2ccc3c(c2)CCO3)C1 (stereo unspecified)	inactive
CN1CCCN=C1COC(=O)C(O)(c1ccccc1)C1CCCCC1 (stereo unspecified)	inactive
ClC1=C(Cl)C2(Cl)C3C(Cl)C=CC3C1(Cl)C2(Cl)Cl (stereo unspecified)	inactive
CN(C)CC/C=C1\c2ccccc2Sc2ccc(Cl)cc21	inactive
CCN(CC)CCCC(C)Nc1c2ccc(Cl)cc2nc2ccc(OC)cc12 (stereo unspecified)	inactive
COc1cc(O)c(C(=O)/C=C/c2ccc(O)c(OC)c2)c(OC)c1	inactive
COc1cc2c(cc1OC)[C@@H]1C(=O)c3ccc4c(c3O[C@@H]1CO2)C=CC(C)(C)O4	inactive
CCCCCCNC(=O)n1cc(F)c(=O)[nH]c1=O	inactive
CN1CCC(=C2c3ccccc3CC(=O)c3sccc32)CC1	inactive
COc1cc(NC(C)CCCN)c2ncccc2c1 (stereo unspecified)	inactive
CCCCCCCCCCCCCCCC[N+](C)(C)C	active
C[C@H]1CC2C([C@@H](O)C[C@@]3(C)C2CC[C@]3(O)C(=O)CO)[C@@]2(C)C=CC(=O)C=C12 (stereo partly specified)	inactive

====

- MEASUREMENT PROTOCOL: chemical genetic growth profiling, strain panel (AID 1159580);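 further: tested at 20 µM; growth read once vehicle control cultures reached saturation at 30 °C; 1 = growth at the plate median or of vehicle wells; lower values mean less growth of the strain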
- EXPERIMENTAL CONTEXT: S. cerevisiae deletion strains, growth OD, locus YOR061W, strain CKA2
Among all 5,500 compounds or so, about 2,000 (36%) were called active. About 18% were inconclusive and are not listed. Cut-off read from the data, not from the text of the source: active = normalized growth mostly below about 0.91 (no sharp cut-off); inconclusive = no clear call, values can overlap the other calls; inactive = mostly above about 0.92. Some of the results follow.
Labels: active, inactive

> print(dat)
                                    compound  classification
 1  CC(C(=O)O)c1cccc(Oc2ccccc2)c1 (centres undefined)        inactive
 2  CCN(CCO)CCCC(C)Nc1ccnc2cc(Cl)ccc12 (centres undefined)        inactive
 3                     COP(=O)(OC)OC=C(Cl)Cl        inactive
 4  N#Cc1ccc(S(=O)(=O)Nc2ccccc2Oc2ccc(Cl)cc2Cl)cc1        inactive
 5  N#CC(C#N)=C(SCc1c(Cl)cccc1Cl)SCc1c(Cl)cccc1Cl        inactive
 6  CC1CC2C3CCC4=CC(=O)C=C[C@]4(C)[C@@]3(F)[C@@H](O)C[C@]2(C)[C@@]1(O)C(=O)CO (some centres undefined)        inactive
 7  Cc1ccccc1C(=O)Oc1ccc(C(F)(F)F)cc1[N+](=O)[O-]        inactive
 8          COc1ccc2cc([C@H](C)C(=O)O)ccc2c1        inactive
 9           O=C(CSc1nnnn1-c1ccccc1)c1ccccc1        inactive
10  CN1CCCN=C1COC(=O)C(O)(c1ccccc1)C1CCCCC1 (centres undefined)        inactive
11  CC(C(=O)O)c1ccc(-c2ccccc2)c(F)c1 (centres undefined)        inactive
12              CN[C@@H](C)[C@@H](O)c1ccccc1        inactive
13  CC(NCCc1ccc(O)cc1)C(O)c1ccc(O)cc1 (centres undefined)        inactive
14  CCN(CC)CCCC(C)Nc1c2ccc(Cl)cc2nc2ccc(OC)cc12 (centres undefined)          active
15  CCOC(=O)[C@H](CCc1ccccc1)N[C@H]1CCc2ccccc2N(CC(=O)O)C1=O        inactive
16  O=C(CC[N+](=O)[O-])OC[C@H]1O[C@@H](O)[C@H](OC(=O)CC[N+](=O)[O-])[C@@H](OC(=O)CC[N+](=O)[O-])[C@@H]1OC(=O)CC[N+](=O)[O-]        inactive
17        COc1ccc2c(c1)OCc1c-2oc2cc(OC)ccc12        inactive
18                                  NCCSSCCN        inactive
19  COc1cc2c(cc1OC)C1C(=O)c3c(OC)cc4c(c3OC1CO2)CCC(C)(C)O4 (centres undefined)        inactive
20              COc1ccc2cc([C@H](C)CO)ccc2c1        inactive
21                      C[N+](C)(C)CCOC(N)=O        inactive
22  COc1ccc(OC)c(C(O)C(C)N)c1 (centres undefined)        inactive
23                 Nc1ccccc1SCc1c(Cl)cccc1Cl        inactive
24  CNC(C)[C@H](O)c1ccccc1 (some centres undefined)        inactive
